Test: Quantitative highthroughput screen to assess conditional lethalithy of SEM cells grown in RPMI1640 with dialyzed fetal bovine serum (RPMI+ds) (AID 1963884); also: nearly all actives have a fitted effect of over 35% in size; also: potency is read from the fitted curve at half-maximal effect;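 as to viability: 100% = DMSO control wells and 0% = empty wells without cells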
Details: SEM B-ALL cells, RPMI+dialyzed FBS, CellTiter-Glo viability, 48 h; series mostly up to 45.8 µM
Results filed as inconclusive are left out. Calls of active or inactive are those of the source. Calls follow the shape of the dose curve; as a rule, active = well fitted cell-killing curve with a large enough effect; inconclusive = small, poorly fitted or top-dose-only effect, or effect the other way; inactive = no such curve, though single readings can be large or run the other way.
QUANTITY_NAME: Potency

[
  {
    "COMPOUND": "Cn1c(=O)n(-c2ccc(C(C)(C)C#N)cc2)c2c3cc(-c4cnc5ccccc5c4)ccc3ncc21",
    "ASSAY_VALUE": "372 nM (active)"
  },
  {
    "COMPOUND": "C[C@H]1[C@@H](OC(=O)CCC(=O)O)O[C@@H]2O[C@@]3(C)CC[C@@H]4[C@H](C)CC[C@@H]1[C@@]24OO3",
    "ASSAY_VALUE": "4180 nM (active)"
  },
  {
    "COMPOUND": "CC1(C)CCC(c2ccc(Cl)cc2)=C(CN2CCN(c3ccc(C(=O)NS(=O)(=O)c4ccc(N[C@H](CCN5CCOCC5)CSc5ccccc5)c(S(=O)(=O)C(F)(F)F)c4)cc3)CC2)C1",
    "ASSAY_VALUE": "52.6 nM (active)"
  },
  {
    "COMPOUND": "CC(O)(C#Cc1ccc2c(c1)N(c1nc(N)ncc1Cl)CC2)c1nccs1 (stereo not drawn)",
    "ASSAY_VALUE": "inactive"
  },
  {
    "COMPOUND": "CC(C)(C)c1nc(-c2cccc(NS(=O)(=O)c3c(F)cccc3F)c2F)c(-c2ccnc(N)n2)s1",
    "ASSAY_VALUE": "inactive"
  },
  {
    "COMPOUND": "Cc1cccc(CN2CCN(C(c3ccccc3)c3ccc(Cl)cc3)CC2)c1 (stereo not drawn)",
    "ASSAY_VALUE": "inactive"
  },
  {
    "COMPOUND": "CC(=O)OCC(=O)[C@@]1(O)CC[C@H]2[C@@H]3CCC4=CC(=O)CC[C@]4(C)[C@@H]3C(=O)C[C@@]21C",
    "ASSAY_VALUE": "inactive"
  },
  {
    "COMPOUND": "COc1cc2nc(-c3ccc(N4CCN(C)CC4)cc3)nc(NCCN3CCOCC3)c2cc1OC",
    "ASSAY_VALUE": "372 nM (active)"
  }
]

----------
Assay: Quantitative highthroughput screen to assess conditional lethalithy of P12 Ichikawa cells grown in RPMI1640 with dialyzed fetal bovine serum (RPMI+ds) (AID 1963880); also: nearly all actives have a fitted effect of over 35% in size; also: potency is read from the fitted curve at half-maximal effect;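 as to viability: 100% = DMSO wells and 0% = empty wells on each plate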
Conditions: ATP luminescence, 48 h; P12-Ichikawa viability; series mostly up to 45.8 µM
Records with an inconclusive call do not appear. The source made the active and inactive calls. The call rests on the fitted dose curve; in most records, active means well fitted cell-killing curve with a large enough effect; inconclusive means small, poorly fitted or top-dose-only effect; inactive means flat fitted curve, though single readings scatter.

[
  {
    "COMPOUND": "COC(=O)Nc1cc(Nc2cc(NC3CC3)c3ncc(C#N)n3n2)c(Cl)c(N2CCN(C)CC2)c1",
    "Potency": "11.7 µM (active)"
  },
  {
    "COMPOUND": "Nc1ccc(S(=O)(=O)Nc2ccnn2-c2ccccc2)cc1",
    "Potency": "inactive"
  },
  {
    "COMPOUND": "COc1cc(NCc2ccc3nc(N)nc(N)c3c2C)cc(OC)c1OC",
    "Potency": "10.5 µM (active)"
  },
  {
    "COMPOUND": "C[C@@H]1COCCN1c1cc(C2(S(C)(=N)=O)CC2)nc(-c2ccnc3[nH]ccc23)n1 (stereo partly specified)",
    "Potency": "2.95 µM (active)"
  },
  {
    "COMPOUND": "COc1ccc(-c2cc3nccn3c(Nc3ncccc3C(N)=O)n2)cc1OC",
    "Potency": "inactive"
  },
  {
    "COMPOUND": "CC(S)C(=O)NCC(=O)O (stereo unspecified)",
    "Potency": "inactive"
  },
  {
    "COMPOUND": "CN1C(C(=O)Nc2ccccn2)=C(O)c2sccc2S1(=O)=O",
    "Potency": "inactive"
  },
  {
    "COMPOUND": "O=Nc1c(-c2c(O)[nH]c3cc(Br)ccc23)[nH]c2ccccc12",
    "Potency": "5.9 µM (active)"
  },
  {
    "COMPOUND": "Nc1ccccc1NC(=O)c1ccc(CNc2nccc(-c3cccnc3)n2)cc1",
    "Potency": "2.35 µM (active)"
  },
  {
    "COMPOUND": "Cn1cc(-c2ccc3nnc(C(F)(F)c4ccc5ncccc5c4)n3n2)cn1",
    "Potency": "inactive"
  },
  {
    "COMPOUND": "CN1C(=O)C(Cc2c[nH]c3ccccc23)NC1=S (stereo unspecified)",
    "Potency": "inactive"
  }
]

----------
Assay: Quantitative highthroughput screen to assess conditional lethalithy of SEM cells grown in RPMI1640 with dialyzed fetal bovine serum (RPMI+ds) (AID 1963884); also: nearly all actives have a fitted effect of over 35% in size;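 as to viability: 100% = DMSO control wells and 0% = empty wells without cells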
Conditions: SEM B-ALL cells, RPMI+dialyzed FBS, CellTiter-Glo viability, 48 h; series mostly up to 45.8 µM
Inconclusive results are not listed. Active and inactive are the calls of the source. Calls come from the whole dose curve; as a rule, active = well fitted cell-killing curve with a large enough effect; inconclusive = small, poorly fitted or top-dose-only effect, or effect the other way; inactive = no such curve, though single readings can be large or run the other way.
Outcomes: 1 for active, 0 for inactive

[
  {
    "MOLECULE": "c1ccc(CNc2nc(N3CCOc4ccccc43)nc3c2CCCC3)cc1",
    "LABEL": 0
  },
  {
    "MOLECULE": "COCCn1c2c([n+](Cc3cnccn3)c1C)C(=O)c1ccccc1C2=O",
    "LABEL": 1
  },
  {
    "MOLECULE": "CCn1cc(C(=O)O)c(=O)c2ccc(C)nc21",
    "LABEL": 1
  },
  {
    "MOLECULE": "CNC(=O)c1ccc(Nc2cc(Nc3ccccc3S(=O)(=O)C(C)C)c3cc[nH]c3n2)nc1",
    "LABEL": 1
  },
  {
    "MOLECULE": "COc1cc(OC)c(NC(=O)Nc2cc(C)on2)cc1Cl",
    "LABEL": 0
  },
  {
    "MOLECULE": "CC(=O)SCC(Cc1ccccc1)C(=O)NCC(=O)OCc1ccccc1 (stereo not given)",
    "LABEL": 0
  },
  {
    "MOLECULE": "CC1(C)CCC(CN2CCN(c3ccc(C(=O)NS(=O)(=O)c4ccc(NCC5CCOCC5)c([N+](=O)[O-])c4)c(Oc4cnc5[nH]ccc5c4)c3)CC2)=C(c2ccc(Cl)cc2)C1",
    "LABEL": 1
  },
  {
    "MOLECULE": "COc1cc2c(cc1OC)C1CC(=O)C(CC(C)C)CN1CC2 (stereo not given)",
    "LABEL": 0
  },
  {
    "MOLECULE": "Cc1cc(-c2ccc(CC(=O)Nc3ccc(-c4cccnc4)cc3)cc2)ccn1",
    "LABEL": 1
  },
  {
    "MOLECULE": "Cc1ccccc1C(C(=O)NC1CCCC1)N(C(=O)Cn1cnc2ccccc21)c1cccc(F)c1 (stereo not given)",
    "LABEL": 0
  }
]

----------
Test: Quantitative highthroughput screen to assess conditional lethalithy of SEM cells grown in Human Plasma-Like Medium with dialyzed fetal bovine serum (HPLM+ds) (AID 1963882); also: nearly all actives have a fitted effect of over 35% in size
Settings: SEM B-ALL cells in HPLM+ds, CellTiter-Glo viability, 48 h; series mostly up to 45.8 µM
Inconclusive results are not listed. Active and inactive are the calls of the source. The call rests on the fitted dose curve; in most records, active means well fitted cell-killing curve with a large enough effect; inconclusive means small, poorly fitted or top-dose-only effect, or effect the other way; inactive means no such curve, though single readings can be large or run the other way.
Possible outcomes: active, inactive

[
  {
    "COMPOUND": "CN1C2CCC1CC(OC(=O)C(CO)c1ccccc1)C2 (stereo not given)",
    "LABEL": "inactive"
  },
  {
    "COMPOUND": "C=C1[C@H](n2cnc3c(=O)[nH]c(N)nc32)C[C@H](O)[C@H]1CO",
    "LABEL": "active"
  },
  {
    "COMPOUND": "CN(C1CCc2c(c3ccccc3n2CC(=O)O)C1)S(=O)(=O)c1ccc(F)cc1 (stereo not given)",
    "LABEL": "inactive"
  },
  {
    "COMPOUND": "Cc1c(C)c2c(c(C)c1O)CCC(C)(COc1ccc(CC3SC(=O)NC3=O)cc1)O2 (stereo not given)",
    "LABEL": "active"
  },
  {
    "COMPOUND": "O=NN(CCCl)C(=O)NCCCl",
    "LABEL": "inactive"
  },
  {
    "COMPOUND": "CC(=O)O[C@H]1C[C@@H]2CC[C@H]3[C@H]4C[C@H]([N+]5(C)CCCCC5)[C@@H](OC(C)=O)[C@@]4(C)CC[C@@H]3[C@@]2(C)C[C@H]1[N+]1(C)CCCCC1",
    "LABEL": "inactive"
  },
  {
    "COMPOUND": "C#CCN[C@@H]1CCc2ccccc21",
    "LABEL": "inactive"
  },
  {
    "COMPOUND": "OCCC#Cc1nc(-c2ccc(F)cc2)c(-c2ccncc2)n1CCCc1ccccc1",
    "LABEL": "inactive"
  },
  {
    "COMPOUND": "N[C@@H](Cc1c[nH]c2ccc(O)cc12)C(=O)O",
    "LABEL": "inactive"
  },
  {
    "COMPOUND": "N[C@H](CSC(c1ccccc1)(c1ccccc1)c1ccccc1)C(=O)O",
    "LABEL": "active"
  }
]

Hey, just so you know, these numbers are from PubChem BioAssay (NCATS).
